Source: ChEMBL document CHEMBL1201862

Test system: IGROV-1
assayProcedure: NCI tumour cell line growth inhibition, 48 h
Calls of active or inactive are those of the source. Rule as the data show it: active = GI50 up to about 1.1 µM and inactive = higher.
Allowed answers: class 1 for active, class 0 for inactive

• COc1ccc(COC(=O)NNC(=O)C2CSC(c3ccccc3)N2C(C)=O)cc1 (stereo unspecified) = class 0

Q. Outcome logged for CCC(=O)c1ccc2[nH]c3c(C)c4c(O)cc(C)nc4c(C)c3c2c1 in this assay:
A. class 0

Q. Outcome logged for C=C(Cl)C(C)(Cl)CCC(Cl)C(C)C (stereo unspecified) in this assay:
A. class 0

Q. Outcome logged for N=c1oc2ccccc2cc1-c1nc2ccccc2c(=O)[nH]1 in this assay:
A. class 0

Q. Outcome logged for CCN(CC)CC(C(=O)Nc1c(C)cccc1C)/C(C)=N\NC(=O)C[N+](C)(C)C (stereo unspecified) in this assay:
A. class 0

Q. Outcome logged for c1ccc(CN[C@]23C4C5CC6C7C5C2C7[C@@](NCc2ccccc2)(C64)N3Cc2ccccc2)cc1 (stereo partly specified) in this assay:
A. class 0

Q. Outcome logged for CC(=O)NC1C(OCc2ccccc2)OC(CO)C(O)C1OCC(=O)N[C@@H](C)C(=O)N[C@H](CCC(=O)NCCCCNc1c2ccccc2nc2cccc([N+](=O)[O-])c12)C(N)=O (stereo partly specified) in this assay:
A. class 1

Q. Outcome logged for CCN(CC)CCN1CCc2c([nH]c3ccccc23)C1c1cccnc1 (stereo unspecified) in this assay:
A. class 0

Q. Outcome logged for CN1CCN(CCNc2ccc(CO)c3sc4ccccc4c(=O)c23)CC1 in this assay:
A. class 0

Q. Outcome logged for COc1ccc2c(C=O)c3n(c(=O)c2c1OC)CCc1cc2c(cc1-3)OCO2 in this assay:
A. class 0

Q. Outcome logged for O=[N+]([O-])/C(C(Cl)=C(Cl)Cl)=C(\N1CCCCC1)n1cncn1 in this assay:
A. class 0

Q. Outcome logged for Brc1cccc(/C=N/C23CC4CC(CC(C4)C2)C3)c1 in this assay:
A. class 0

Q. Outcome logged for CC1=C(Oc2ccccc2)C(CCC(=O)O)c2c(O)cc(Cl)c(O)c21 (stereo unspecified) in this assay:
A. class 0

Q. Outcome logged for CCC/C(C)=N/NC(=S)SC.CCC/C(C)=N/NC(=S)SC.[Zn+2] in this assay:
A. class 0

Q. Outcome logged for COc1cc(-c2oc3c(OC)c(O)cc(O)c3c(=O)c2OC)ccc1O in this assay:
A. class 0

* * *

Test system: OVCAR-3
assayProcedure: NCI tumour cell line growth inhibition, 48 h
Calls of active or inactive are those of the source. Rule as the data show it: active = GI50 up to about 1.1 µM and inactive = higher.
measuredMetric: GI50

Use the examples below as a reference point.
* CNC(C)C(O)c1ccc2oc3cc(=O)c4ccccc4c-3nc2c1 (centres undefined) | 11.9 µM (inactive)
* O=c1c(-c2ccccc2)c(SCCCN2CCN(c3cccc(Cl)c3)CC2)n(-c2ccccc2)c(=S)n1-c1ccccc1 | > 100 µM (inactive)

Record summary for CC(=O)O[C@H]1CC[C@@]2(C)C(=C[C@H](c3ccc(O)cc3)[C@H]3[C@@H]4CC[C@H](OC(C)=O)[C@@]4(C)CC[C@@H]32)C1 : reported GI50 = 17.3 µM (inactive)

Record summary for Clc1ccc(-n2nnc(C3=NCCCN3)c2-c2ccccc2)cc1 : reported GI50 = > 100 µM (inactive)

Record summary for N#CC(/C(=N/NC(=N)N)C(=O)Nc1ccccc1[N+](=O)[O-])c1nc(-c2ccc([N+](=O)[O-])cc2)cs1 (centres undefined) : reported GI50 = > 100 µM (inactive)

Record summary for COC(=O)c1ccc(OCc2ccc3oc(=O)c(-c4ccccc4)nc3c2)cc1 : reported GI50 = 44.9 µM (inactive)
